- Tested on: monoclonal antibody 10-15-63
- protocol details: Immunoprecipitation of [125I] synthetic peptides by 10-15-63
- Format: binding, mouse
- run parameters: 10-15-63 10 μg/0.2 ml; PBS, 0.1% Triton X-100, 1.0% BSA, carrier serum; second antibody precipitation
Quick list: SPECIFIC PRECIPITATION (CPM) by 10-15-63 per entry.
recorded endpoint: SPECIFIC PRECIPITATION (CPM) by 10-15-63

| substance | endpoint value |
| --- | --- |
| ARILAVERYLKDQQLLGIWGCSGKLICTTAVPWNASWSNKSLEQIWNNMTWMEWDREINNYSLIHSLIEESQNQQEKNELLELNK [P67-154] | 9713 |
| YNYTSLIHSLIEESQNQQEKNEQELLELDKWANLWNWL [P126-162] | 0 |
| IHSLIEESQNQQEKNEQELLELDK [P131-154] | 0 |
| IHSLIEESQNQQEKNEQELLELDKWANLWNWLNITNWLWYIKLFI [P131-175] | 188 |
| NH2-Asp-Arg-Glu-Ile-Asn-Asn-Tyr-Thr-Ser-Leu-Ile-His-Ser-Leu-Ile-Glu-Glu -Ser-Gln-Asn-Gln-Gln-Glu-Lys-Asn-Glu-Gln-Glu-Leu-Leu-Glu-Leu-Asp-Lys-COOH (H-DREINNYTSLIHSLIEESQNQQEKNEQELLELDK-OH) [P121-154] | 371 |
